- protocol summary: from Wadhwa, L.; Chandiran, S.; Sharma, P. (2004). Alkyl esters of 6-methoxy-2-naphthylacetic acid as potential prodrugs - Synthesis, physicochemical properties, chemical stability and enzymatic …
- test conditions: pH 7.4
outcome measure: logD

>  <chem smiles>
COC(=O)Cc1ccc2cc(OC)ccc2c1

>  <val>
3.04

$$$$

We next turn to a different molecule, shown below.
Quick check: logD of `CCCCOC(=O)Cc1ccc2cc(OC)ccc2c1` ?
4.75

###

Reported logD values follow for various compounds
- protocol summary: method code SF-RC, from DOI: 10.1021/jm201482p, PMID: 22339166
- test conditions: pH 6.8
Would you mind answering with just the numeric figure?

>  <compound>
CC(C)(C)c1cc(C(C)(C)C)c2c(c1F)CO[P@@](=O)(OC[C@H]1O[C@@H](n3cc(I)c(=O)[nH]c3=O)C[C@@H]1O)O2

>  <val>
2.23

$$$$

Need logD, item O=c1[nH]c(=O)n([C@H]2CC(F)[C@@H](CO)O2)cc1I (some centres not stated)
-0.03
